Reference for the values: a melting point compilation (Tetko et al.; mined from patent text by program, amines drawn as free bases though some values may be those of a salt)

Listed here are molecules together with their documented melting point.

These solved cases illustrate the format of a correct answer.
> print(dat)
                                   molecule         result
1  CCOC(=O)CC[C@H](NC(=O)c1ccc(C(COC2CCCCO2)CC2CNc3nc(NC(=O)C(C)(C)C)nc(O)c3C2)cc1)C(=O)OCC (stereo partly drawn)  183 to 186 °C
2       CCC(=O)Nc1nc2ccc(Cl)cc2n2c(CC)nnc12  212 to 215 °C
3  COCc1ncccc1CN(CCn1ccc2oc(C)cc2c1=O)Cc1ccc2c(c1)N(C)C(=O)C(C)(C)C(=O)N2C1CC1  146 to 148 °C
4  Cc1cccc(C=NNc2nc(OCCc3ccccn3)nc(N3CCOCC3)n2)c1  143 to 147 °C
5  CN(C)C1(Cc2ccccc2)CCC(c2[nH]c3ccccc3c2Cc2ccccc2)CC1 (stereo not drawn)  140 to 143 °C

Problem: Bench note: what melting point did Cc1cc(C)c2c(c1)c(-c1ccccc1Cl)c(NC(=O)Nc1c(C)cccc1C(C)C)c(=O)n2C show?
Solution: 203 to 204 °C

Problem: Requested field: melting point. Item: CCCc1cc(Cl)cc2nc(Cc3ccc(OC)c(OC4CCCC4)c3)oc12
Solution: 54 to 55 °C

Problem: Given the molecule O=C(Nc1ccc(-c2cccc(C(=O)O)c2)cc1)OCC1c2ccccc2-c2ccccc21 , what is its reported melting point?
Solution: 226 to 228 °C

Problem: Sample Cc1oc(-c2ccccc2)nc1COc1ccc(Cn2cc(CCC(=O)O)c(-c3ccccn3)c2)cc1 — what was its melting point?
Solution: 155 to 156 °C

Problem: Query (molecule): NS(=O)(=O)c1cc(C(=O)CCCCCl)cc2c1CCC2 ; field requested: melting point
Solution: 117 to 119 °C

Problem: Reported melting point, molecule COCCc1nc2c(N)nc3ccccc3c2n1CCOCCN(C)S(C)(=O)=O : ____
Solution: 145 to 146 °C

Problem: Look up melting point for this molecule: CCc1nc2c(-c3cc4ccoc4cc3C)ncnc2n1C(C1CC1)C1CC1
Solution: 139 to 141 °C
